Assignment: determine reported whole-cell filipin (z-score) for the given compounds.
tested on: HeLa MZ; assay: whole-cell filipin (free cholesterol) integrated intensity, Z-score; higher = more cholesterol staining; settings: compound concentration in added solution (µM; 5 µl added to 20 µl cells): 10; 18 h
Where a name gives a salt, the structure may show the parent alone.
Answers are plain numbers.

Reference set (3 entries):
>>> recorded_value("OC(c1ccccc1)(c1ccccc1)C1CCNCC1")
-0.666
>>> recorded_value("CC(C)N(CCC(C(N)=O)(c1ccccc1)c1ccccn1)C(C)C (stereo not given) [Disopyramide]")
-0.537
>>> recorded_value("CCN(C(C)=O)c1cccc(-c2ccnc3c(C#N)cnn23)c1")
-0.909

# per-item lookup of whole-cell filipin (z-score); items listed below
1. NC(=O)CN1CCCC1=O
2. O=[N+]([O-])c1cc([As](=O)(O)O)ccc1O
3. c1ccc2nc(N3CCNCC3)ccc2c1 [Quipazine dimaleate salt]
4. NCC1(CC(=O)O)CCCCC1
5. NCCC(O)C(=O)NC1CC(N)C(OC2OC(CN)C(O)[C@H](O)[C@@H]2N)[C@H](OC2O[C@H](CO)[C@@H](O)[C@@H]2O)[C@@H]1O (stereo not given in full) [Butirosin disulfate salt]
6. CC(=O)OCC1=C(C(=O)O)N2C(=O)[C@@H](N)[C@H]2SC1

[-0.301, 0.562, -0.241, -0.476, 0.609, -0.877]

Notebook: pull reported whole-cell filipin (z-score) for HeLa MZ, entry CCC1(C)CC(=O)NC(=O)C1 [Bemegride]
-0.492

###

test system: A431; assay: LBPA endosome anti-LBPA integrated intensity (sum per cell), Z-score; higher = more LBPA staining; conditions: compound concentration in added solution (µM; 5 µl added to 20 µl cells): 10; 18 h
Where a name gives a salt, the structure may show the parent alone.
test.readout: LBPA endosome anti-LBPA integrated intensity (z-score)
Answers are plain numbers.

Worked examples, 8 compounds total:
>>> recorded_value("Oc1ccc2c3c1O[C@H]1[C@@H](O)CC[C@@]4(O)[C@@H](C2)N(CC2CCC2)CC[C@]314 [Nalbuphine hydrochloride]")
-0.515
>>> recorded_value("CC(O)(CS(=O)(=O)c1ccc(F)cc1)C(=O)Nc1ccc(C#N)c(C(F)(F)F)c1 (centres undefined) [Bicalutamide]")
-0.376
>>> recorded_value("Cc1cccc(C)c1NC1=NCCCS1")
-0.493
>>> recorded_value("NC(=O)CN1CCCC1=O")
-0.558
>>> recorded_value("CNC(C)(C)Cc1ccccc1 [Mephentermine hemisulfate]")
-0.473
>>> recorded_value("NCCCNCCSP(=O)(O)O")
-0.621
>>> recorded_value("O=C1CC[C@@]2(O)[C@H]3Cc4ccc(O)c5c4[C@@]2(CCN3CC2CC2)[C@H]1O5 [Naltrexone hydrochloride dihydrate]")
-0.577
>>> recorded_value("CCC1(c2cccc(O)c2)CCCCN(C)C1 (centres undefined) [Meptazinol hydrochloride]")
-0.527

# input for lookup
I am curious: what LBPA endosome anti-LBPA integrated intensity (z-score) value has been reported for O[C@@H]1CCCC[C@H]1N1CCC(c2ccccc2)CC1 [L(-)-vesamicol hydrochloride] ?
-0.173

###

tested on: A431; assay: filipin (cholesterol) integrated intensity within LBPA endosomes, Z-score; higher = more cholesterol in LBPA endosomes; conditions: compound concentration in added solution (µM; 5 µl added to 20 µl cells): 10; 18 h
Structures can show the parent of a compound that is named as a salt.
Decision: filipin (z-score) compared against -0.4; not below it gives satisfied, below it gives not satisfied.

>>> group("CCC1(CC)C(=O)C=CNC1=O")
"not satisfied"
>>> group("CC(CCc1ccccc1)NC(C)C(O)c1ccc(O)cc1 (centres undefined)")
"satisfied"
>>> group("O=[N+]([O-])O[C@@H]1CO[C@H]2[C@@H]1OC[C@@H]2O [Isosorbide mononitrate]")
"satisfied"
>>> group("C[C@]12CCC(=O)C=C1C=C[C@@H]1[C@@H]2CC[C@@]2(C)[C@H]1CC[C@@]2(O)CCC(=O)O [Canrenoic acid potassium salt]")
"not satisfied"
>>> group("OC(c1ccccc1)(c1ccccc1)C1CCNCC1")
"satisfied"
>>> group("CCC(=O)O[C@@](Cc1ccccc1)(c1ccccc1)[C@@H](C)CN(C)C [Levopropoxyphene napsylate]")
"satisfied"

Next, consider the following compound.
Record CCNCC(O)c1cccc(O)c1 (centres undefined) [Etilefrine hydrochloride] ; criterion: filipin (z-score) no lower than -0.4. Met?
satisfied

Data provenance: the supplement of paper PMC6607015
